Cited source: paper PMC8391806

Molecular target: p38α kinase (residues 1–360 of human p38α) (human, UniProt Q16539 1-360)
Sequence (Q16539 whole entry, the tested form may be a part): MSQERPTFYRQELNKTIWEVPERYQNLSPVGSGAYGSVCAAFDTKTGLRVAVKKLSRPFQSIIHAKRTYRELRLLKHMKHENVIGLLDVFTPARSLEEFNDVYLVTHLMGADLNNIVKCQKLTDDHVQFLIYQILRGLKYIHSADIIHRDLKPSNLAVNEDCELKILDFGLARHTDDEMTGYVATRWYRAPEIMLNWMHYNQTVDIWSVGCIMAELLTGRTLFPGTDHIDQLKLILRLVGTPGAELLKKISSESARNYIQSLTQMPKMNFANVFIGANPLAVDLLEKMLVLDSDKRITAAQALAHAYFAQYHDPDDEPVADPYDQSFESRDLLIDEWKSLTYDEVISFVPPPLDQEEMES
Assay: ITC
measurement-label: Kd (µM)
Record the value in µM, omitting the unit from your answer.

Reported Kd, binder regulatory domain of MKK4 (residues 12–86) with N-terminal thioredoxin and 6xHis tag, unlabeled, for ITC (domain or fragment) SGGGSGSGTPGPVGSPAPGHPAVSSMQGKRKALKLNFANPPFKSTARFTLNPNPTGVQNPHIERLRTHSIESSGK : ____ 4.1
